Tested on: Vero-E6
test description: primary screen, phospholipidosis by LipidTOX staining; higher = more effect of the substance
details: 10 µM
The campaign covered roughly 5,400 compounds. About 190 (3.5%) showed an effect of 50% or more. This excerpt belongs to a sample that is enriched for strong results. Non-standard residues stand in square brackets, D forms with d. Residues, ends and D or L forms follow the SMILES beside them.
metric name: result_ITMP (%)

compound=Cc1cc(CN)cc(C)c1NC(=O)c1ccc(-c2cc(Cl)ccc2Cl)o1 metric_name=result_ITMP val=36.2
compound=O=C(N[C@H](Cc1ccccc1)C(=O)O)c1sc2cc(F)ccc2c1Cl metric_name=result_ITMP val=-1.39
compound=CCN1C(=O)CN=C2NC=C(c3ccc(-c4nnc[nH]4)nc3C)N=C21 metric_name=result_ITMP val=-2.57
compound="C[C@H](NC(=O)[C@@H](Cc1c[nH]c2ccccc12)NC(=O)[C@@H](N)Cc1cnc[nH]1)C(=O)N[C@@H](Cc1c[nH]c2ccccc12)C(=O)N[C@H](Cc1ccccc1)C(=O)N[C@@H](CCCCN)C(N)=O (H-H[dW]AW[dF]K-NH2)" metric_name=result_ITMP val=-2.53
compound=Cn1ncc(Cl)c1-c1cc(C(=O)N[C@H](CN)Cc2cccc(F)c2)sc1Cl metric_name=result_ITMP val=69.5
compound=COc1ccc(-c2ccc3c(N4CCOCC4)nc(N4C[C@@H](C)O[C@@H](C)C4)nc3n2)cc1CO metric_name=result_ITMP val=1.47
compound=O=c1[n-]c(=O)n(Cl)c(=O)n1Cl metric_name=result_ITMP val=-11.2
compound=COc1ccc(C[C@@H](C)[C@@H](C)Cc2ccc(OC)c(OC)c2)cc1OC metric_name=result_ITMP val=6.63
compound=Cn1ncc(Cl)c1-c1cc(C(=O)N[C@H](CN)Cc2ccc(F)c(F)c2)oc1Cl metric_name=result_ITMP val=82.6
